Entries and their Bottom values follow.
Molecular target: T1, huCD39 recombinant protein (human, UniProt P49961 38-478)
T1 construct: the entry is the extracellular domain and ends in a histidine tag; also called soluble huCD39 protein; human CD39 extracellular domain recombinant protein
T1 sequence: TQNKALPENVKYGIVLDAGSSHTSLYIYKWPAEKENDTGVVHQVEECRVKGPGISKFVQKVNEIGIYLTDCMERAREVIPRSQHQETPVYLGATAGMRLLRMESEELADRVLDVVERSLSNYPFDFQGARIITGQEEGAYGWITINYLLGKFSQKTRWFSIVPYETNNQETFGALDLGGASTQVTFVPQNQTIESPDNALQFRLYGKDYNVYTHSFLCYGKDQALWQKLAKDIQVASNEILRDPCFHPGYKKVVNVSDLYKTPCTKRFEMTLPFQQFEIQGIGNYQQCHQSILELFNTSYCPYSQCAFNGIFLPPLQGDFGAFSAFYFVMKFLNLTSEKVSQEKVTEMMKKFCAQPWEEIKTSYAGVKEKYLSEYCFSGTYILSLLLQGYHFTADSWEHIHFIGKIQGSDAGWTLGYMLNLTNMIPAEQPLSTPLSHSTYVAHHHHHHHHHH
Assay: indirect ELISA, huCD39 recombinant protein coated at 1 ug/mL
Number only, in OD450; omit the unit.

Solved cases below.
- Binder: "216 hIgG2 (antibody, V domains shown, Chimeric antibody: mouse Fv fused to the human IgG2 constant region; also called chimeric antibody 216) VH: EVQLVESGGGLVKPGGSLKLPCAASGFTFSDYGMHWVRQAPEKGLEWVAYISSGSSIIYYADTVKGRFTISRDNAKNTLFLQMTSLRSEDTAMYYCARDLYYDHVLDYWGQGTTLTVAS VL: DIQMTQSPSSLSASLGERVSLTCRASQEISGYLIWLQQKPDGTIKRLIYAASTLDSGVPKRFSGNRSGSDYSLTISSLESEDFADYYCLQYASYPRTFGGGTKLEIKR"
  Assay Endpoint: "Bottom"
  Observed Measurement: 0.06
- Binder: "201 hIgG2 (antibody, V domains shown, Chimeric antibody: mouse Fv fused to the human IgG2 constant region, expressed in 293F cells; also called chimeric antibody 201) VH: EVQLVESGGGLVKPGGSLKLSCAASGFTFSDYGMHWVRQAPEKGLEWVAYISSGSSIMYYADTVKGRFTISRDNAKNTLFLQMASLRSEDTAMYYCARDLYYDHVLDYWGQGTTLTVSS VL: DIQMTQSPSSLSASLGERVSLTCRASQEIRGYLIWLQQKPGGTIKRLIYAASTLDSGVPKRFSGSRSGSDYSLTISSLESEDFADYYCLQYTSYPRTFGGGTKLEIKR"
  Assay Endpoint: "Bottom"
  Observed Measurement: 0.046
- Binder: "219 hIgG2 (antibody, V domains shown, Chimeric antibody: mouse Fv fused to the human IgG2 constant region; also called chimeric antibody 219) VH: EVQLVESGGGLVKPGGSLKLSCAASGFTFSDYGMHWVRQAPEKGLEWVAYISSGSSIRYYADTVKGRFTISRDNAKNTLFLQMTSLRSEDTAIYYCARDLYYDHVLDYWGQGTTLTVSS VL: DIQMTQSPSSLSASLGERVSLTCRASQEVSGYLNWLQQKPDGTIKRLIYAASTLDSGVPKRFSGSRSGSDYSLTISSLESEDFADYYCLQYASYPRTFGGGTKVEIKR"
  Assay Endpoint: "Bottom"
  Observed Measurement: 0.052

Fill in the blank: the reported Bottom of 217 hIgG2 (antibody, V domains shown, Chimeric antibody: mouse Fv fused to the human IgG2 constant region) VH: EVQLVESGGGLVKPGGSLKLSCAASGFTFSDYGMHWVRQAPEKGLEWVAYISSGSSVIYYVDTVKGRFTISRDNAKNTLFLQMTSLRSEDTAMYYCARDLYYDHVLDSWGQGTTLTVSS VL: DIQMTQSPSSLSASLGERVSLTCRASQEIGGYLSWLQQKPDGTIKRLIYAASTLDSGVPKRFSGSRSGSDYSLTISSLESEDFADYYCLQYASYPRTFGGGTKLEIKR is ____. 0.07
